# ASSAY_METHOD_TEXT: Metabolic stability in human plasma assessed as compound remaining after 2 hrs by LC-MS/MS analysis
# Type: ADME, cell-free
# RUN_CONDITIONS: read-out: Stability
MEASUREMENT_TYPE: remaining at 2 h (%)
The response must be a number in % with no trailing unit.

STRUCTURE_NOTATION: CC(C)CC1(O)CCN(C(=O)Nc2cc(Oc3ccc(F)cc3)cc(Oc3ccc(CC(=O)O)cc3)c2)CC1
remaining at 2 h [%]: 77

In: Requested field: remaining at 2 h. Item: CC(C)CC1(O)CCN(C(=O)Nc2cc(Oc3ccc(F)cc3)cc(Oc3ccc(C(C)(C)C(=O)O)cc3)c2)CC1
Out: 97
